Property: EC50; scope: individual binders
# target-desc: T1, human tissue factor (TF), membrane-bound on cells (human, UniProt P13726 33-295)
# T1 construct: whole, on cells; also called cellular TF
# procedure-summary: FACS, TF transfected CHO cells (S1015-TF)
Answer in nM, number only, no unit symbol.

Solved cases below.
anti-TF HuMab 111 (antibody, V domains shown, Human monoclonal antibody from HuMab mice) VH: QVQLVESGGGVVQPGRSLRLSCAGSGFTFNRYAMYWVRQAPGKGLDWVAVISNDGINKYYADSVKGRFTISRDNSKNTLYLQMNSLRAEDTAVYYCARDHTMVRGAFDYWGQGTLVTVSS VL: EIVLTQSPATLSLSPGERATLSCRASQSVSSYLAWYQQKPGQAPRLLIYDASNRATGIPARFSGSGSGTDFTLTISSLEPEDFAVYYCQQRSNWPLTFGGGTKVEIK: 0.55
anti-TF HuMab 101 (antibody, V domains shown, Human monoclonal antibody from HuMab mice) VH: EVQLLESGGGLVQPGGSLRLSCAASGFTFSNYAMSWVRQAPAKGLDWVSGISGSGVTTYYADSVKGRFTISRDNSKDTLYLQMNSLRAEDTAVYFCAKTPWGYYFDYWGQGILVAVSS VL: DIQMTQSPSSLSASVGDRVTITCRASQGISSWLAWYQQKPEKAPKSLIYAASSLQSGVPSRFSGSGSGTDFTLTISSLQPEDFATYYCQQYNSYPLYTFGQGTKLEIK: 1.77
anti-TF HuMab 003 (antibody, V domains shown, Human monoclonal antibody from HuMab mice; also called HuMab-TF-003) VH: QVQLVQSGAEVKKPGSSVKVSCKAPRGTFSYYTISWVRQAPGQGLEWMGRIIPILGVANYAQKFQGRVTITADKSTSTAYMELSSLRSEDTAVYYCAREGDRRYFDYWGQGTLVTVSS VL: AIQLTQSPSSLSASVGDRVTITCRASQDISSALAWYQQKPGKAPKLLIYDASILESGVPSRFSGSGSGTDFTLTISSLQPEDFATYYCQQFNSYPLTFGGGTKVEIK: 2.06

Incoming: Suppose we examine the binder anti-TF HuMab 013 (antibody, V domains shown, Human monoclonal antibody from HuMab mice; also called HuMab-TF-13) VH: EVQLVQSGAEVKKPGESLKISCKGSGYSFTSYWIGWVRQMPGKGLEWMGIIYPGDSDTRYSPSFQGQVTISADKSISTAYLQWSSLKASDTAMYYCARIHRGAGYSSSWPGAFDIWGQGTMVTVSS VL: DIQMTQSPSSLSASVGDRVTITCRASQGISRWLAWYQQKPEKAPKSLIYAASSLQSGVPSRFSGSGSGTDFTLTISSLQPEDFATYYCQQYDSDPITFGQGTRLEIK ; what EC50 value has been reported?
Outgoing: 1.07

Incoming: Suppose we examine the binder anti-TF HuMab 098 (antibody, V domains shown, Human monoclonal antibody from HuMab mice; also called HuMab-TF-098; HuMab-TF-98) VH: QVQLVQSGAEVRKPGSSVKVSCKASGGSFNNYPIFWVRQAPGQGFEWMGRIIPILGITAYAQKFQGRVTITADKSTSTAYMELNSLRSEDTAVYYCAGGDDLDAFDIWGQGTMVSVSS VL: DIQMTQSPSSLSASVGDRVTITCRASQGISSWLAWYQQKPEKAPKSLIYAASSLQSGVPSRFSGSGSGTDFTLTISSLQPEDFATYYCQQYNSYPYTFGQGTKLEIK ; what EC50 value has been reported?
Outgoing: 0.96

Hey, just so you know, these numbers are from patent US20110300156A1.
